Cited source: patent US8680139B2

Known pEC50 of a selection of compounds
molecular target: USP7 (Homo sapiens); construct: full length human USP7 protein; experiment: USP7, Ub-PLA2 assay; details: Ub-PLA2 / NBD C6-HPC fluorescence, 30 minute preincubation; read-out: EC50 for inhibition of USP7
pEC50: −log10 of the molar value.

Name the recorded pEC50 for CC(=O)c1cc([N+](=O)[O-])c(Sc2cccc(Cl)c2)s1 .
5.00 to 6.00

Name the recorded pEC50 for CN1C(C)(C)CC(NC(=O)c2cc([N+](=O)[O-])c(Sc3c(Cl)cncc3Cl)s2)CC1(C)C .
≥ 6.00

Name the recorded pEC50 for CC(O)c1cc([N+](=O)[O-])c(Sc2cccc(Cl)c2Cl)s1 (stereo not drawn) .
< 5.00

Name the recorded pEC50 for O=C(NC1CC1)c1cc([N+](=O)[O-])c(Sc2c(Cl)cncc2Cl)s1 .
≥ 6.00

Name the recorded pEC50 for CNC(C)c1cc([N+](=O)[O-])c(Sc2ccc(Cl)cc2Cl)s1 (stereo not drawn) .
< 5.00

Name the recorded pEC50 for CC(=O)c1cc([N+](=O)[O-])c(Sc2ccccc2Cl)s1 .
< 5.00

Name the recorded pEC50 for CN1CCC(NC(=O)c2sc(Sc3c(Cl)cncc3Cl)c(C#N)c2-c2ccccc2)CC1 .
5.00 to 6.00

Name the recorded pEC50 for CCCN1CCC(NC(=O)c2cc([N+](=O)[O-])c(Sc3c(Cl)cncc3Cl)s2)CC1 .
≥ 6.00

Name the recorded pEC50 for CC(C)NC(=O)c1cc([N+](=O)[O-])c(Sc2c(Cl)cncc2Cl)s1 .
5.00 to 6.00

Name the recorded pEC50 for CC(=O)c1cc([N+](=O)[O-])c(Sc2ccc(Cl)cc2Cl)s1 .
5.00 to 6.00

* * *

biological target: USP7 (Homo sapiens, UniProt Q93009); construct: full length human USP7 protein; assay: USP7, Ub-PLA2 assay; conditions: Ub-PLA2 / NBD C6-HPC fluorescence, 30 minute preincubation; read-out: EC50 for inhibition of USP7
Sequence (Q93009 whole entry): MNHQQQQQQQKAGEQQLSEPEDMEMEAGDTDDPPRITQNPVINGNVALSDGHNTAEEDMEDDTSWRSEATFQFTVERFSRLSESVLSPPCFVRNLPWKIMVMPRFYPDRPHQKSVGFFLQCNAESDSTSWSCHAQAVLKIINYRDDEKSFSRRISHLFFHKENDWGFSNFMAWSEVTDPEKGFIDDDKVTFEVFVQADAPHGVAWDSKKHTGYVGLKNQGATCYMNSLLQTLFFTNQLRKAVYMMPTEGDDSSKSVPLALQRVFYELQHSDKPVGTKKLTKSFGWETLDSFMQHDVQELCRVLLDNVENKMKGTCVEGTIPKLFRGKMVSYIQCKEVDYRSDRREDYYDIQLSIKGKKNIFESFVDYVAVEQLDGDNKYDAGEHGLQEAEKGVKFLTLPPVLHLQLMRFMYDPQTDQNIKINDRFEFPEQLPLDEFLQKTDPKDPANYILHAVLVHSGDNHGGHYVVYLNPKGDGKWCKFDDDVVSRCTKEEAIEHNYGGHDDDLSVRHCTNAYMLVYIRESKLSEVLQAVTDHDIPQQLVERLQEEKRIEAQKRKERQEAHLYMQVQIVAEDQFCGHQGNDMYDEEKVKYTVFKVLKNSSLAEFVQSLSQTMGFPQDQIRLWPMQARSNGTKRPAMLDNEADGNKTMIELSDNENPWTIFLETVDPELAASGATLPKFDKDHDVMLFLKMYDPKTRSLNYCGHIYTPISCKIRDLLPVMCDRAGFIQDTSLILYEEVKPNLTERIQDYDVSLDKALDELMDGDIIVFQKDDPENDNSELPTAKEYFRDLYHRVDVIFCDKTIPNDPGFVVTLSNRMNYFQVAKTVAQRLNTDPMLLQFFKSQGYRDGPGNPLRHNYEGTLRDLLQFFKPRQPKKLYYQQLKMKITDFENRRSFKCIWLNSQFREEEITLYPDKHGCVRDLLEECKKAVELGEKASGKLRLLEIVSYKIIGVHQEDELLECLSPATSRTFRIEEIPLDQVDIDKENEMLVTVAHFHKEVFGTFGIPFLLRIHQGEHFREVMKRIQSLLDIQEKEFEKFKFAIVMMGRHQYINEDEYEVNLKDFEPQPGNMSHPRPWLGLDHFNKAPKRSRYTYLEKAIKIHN
pEC50: −log10 of the molar value.
OBSERVABLE: pEC50

Observe how each entry below is paired with its result.
MOLECULE: COCCN1CC(NC(=O)c2cc([N+](=O)[O-])c(Sc3c(Cl)cncc3Cl)s2)CC1=O (centres unmarked)
OBSERVABLE: pEC50
ENDPOINT RESULT: 5.00 to 6.00
--
MOLECULE: COc1ccc(NC(=O)c2cc([N+](=O)[O-])c(Sc3c(Cl)cncc3Cl)s2)c(C)c1
OBSERVABLE: pEC50
ENDPOINT RESULT: ≥ 6.00
--
MOLECULE: O=C(NCCc1ccc(Br)cc1)c1cc([N+](=O)[O-])c(Sc2c(Cl)cncc2Cl)s1
OBSERVABLE: pEC50
ENDPOINT RESULT: ≥ 6.00
--
MOLECULE: COc1cccc(CNC(=O)c2cc([N+](=O)[O-])c(Sc3c(Cl)cncc3Cl)s2)c1OC
OBSERVABLE: pEC50
ENDPOINT RESULT: ≥ 6.00
--
MOLECULE: COCCNC(=O)CNC(=O)c1cc([N+](=O)[O-])c(Sc2c(Cl)cncc2Cl)s1
OBSERVABLE: pEC50
ENDPOINT RESULT: 5.00 to 6.00

Give USP7 (Homo sapiens, UniProt Q93009) pEC50 for CN1C2CCC1CC(NC(=O)c1cc([N+](=O)[O-])c(Sc3c(Cl)cncc3Cl)s1)C2 (centres unmarked)
≥ 6.00

Give USP7 (Homo sapiens, UniProt Q93009) pEC50 for CC(=O)c1cc([N+](=O)[O-])c(Sc2ccc([N+](=O)[O-])cc2)s1
5.00 to 6.00

Give USP7 (Homo sapiens, UniProt Q93009) pEC50 for O=C(c1cc([N+](=O)[O-])c(Sc2c(Cl)cncc2Cl)s1)N1CCCC(O)C1 (centres unmarked)
5.00 to 6.00

Give USP7 (Homo sapiens, UniProt Q93009) pEC50 for O=C(c1cc([N+](=O)[O-])c(Sc2c(Cl)cncc2Cl)s1)N1CCC(F)CC1
5.00 to 6.00

* * *

OVCAR-3 data, read-out GI50
Give your result in µM as a bare value.

Observe how each entry below is paired with its result.
COMPOUND: CC(=O)c1cc([N+](=O)[O-])c(Sc2c(Cl)cncc2Cl)s1 [Example 17]
STUDY TARGET: OVCAR-3
GI50 [µM]: 1.41
//
COMPOUND: CS(=O)(=O)c1cc([N+](=O)[O-])c(Sc2c(Cl)cncc2Cl)s1 [Example 22]
STUDY TARGET: OVCAR-3
GI50 [µM]: 1.82
//
COMPOUND: CC(=O)c1cc([N+](=O)[O-])c(Sc2ccc(F)cc2F)s1 [Example 3]
STUDY TARGET: OVCAR-3
GI50 [µM]: 2.04

Give OVCAR-3 GI50 for CS(=O)(=O)c1cc([N+](=O)[O-])c(Sc2ccc(Cl)cc2Cl)s1 [Example 23]
1.62

Give OVCAR-3 GI50 for CC(=O)c1cc([N+](=O)[O-])c(Sc2cccc(Cl)c2Cl)s1 [Example P5091]
1.65

* * *

Known EC50 of a selection of compounds
target: USP7 (Homo sapiens, UniProt Q93009); construct: full length human USP7 protein; assay: USP7, Ub-PLA2 assay; details: Ub-PLA2 / NBD C6-HPC fluorescence, 30 minute preincubation; read-out: EC50 for inhibition of USP7

Observe how each entry below is paired with its result.
TEST SMILES: O=C(Nc1ccc(F)cc1F)c1cc([N+](=O)[O-])c(Sc2c(Cl)cncc2Cl)s1
STUDY TARGET: USP7 (Homo sapiens, UniProt Q93009)
ENDPOINT RESULT: ≤ 1 µM
//
TEST SMILES: CN1CCC(CNC(=O)c2cc([N+](=O)[O-])c(Sc3c(Cl)cncc3Cl)s2)CC1
STUDY TARGET: USP7 (Homo sapiens, UniProt Q93009)
ENDPOINT RESULT: ≤ 1 µM
//
TEST SMILES: O=C(NCc1ccc(Cl)cc1)c1cc([N+](=O)[O-])c(Sc2c(Cl)cncc2Cl)s1
STUDY TARGET: USP7 (Homo sapiens, UniProt Q93009)
ENDPOINT RESULT: ≤ 1 µM
//
TEST SMILES: O=C(NCc1ccc(F)cc1)c1cc([N+](=O)[O-])c(Sc2c(Cl)cncc2Cl)s1
STUDY TARGET: USP7 (Homo sapiens, UniProt Q93009)
ENDPOINT RESULT: ≤ 1 µM
//
TEST SMILES: COC(=O)c1cc([N+](=O)[O-])c(Oc2c(Cl)cncc2Cl)s1
STUDY TARGET: USP7 (Homo sapiens, UniProt Q93009)
ENDPOINT RESULT: 1 to 10 µM

Name the recorded EC50 for CS(=O)(=O)c1ccc(NC(=O)c2cc([N+](=O)[O-])c(Sc3c(Cl)cncc3Cl)s2)cc1 .
≤ 1 µM

Name the recorded EC50 for CC(C)(C)NC(=O)c1cc([N+](=O)[O-])c(Sc2c(Cl)cncc2Cl)s1 .
≤ 1 µM

Name the recorded EC50 for O=C(Nc1c(Cl)cccc1Cl)c1cc([N+](=O)[O-])c(Sc2c(Cl)cncc2Cl)s1 .
≤ 1 µM

* * *

test: HCT-116 Cellular Cytotoxicity Assay; details: human, HCT-116 cells, pH 7.2
OBSERVABLE: log10 EC50 at 72 h (log10 of the value in µM)
// stored as log10 of EC50 at 72 h expressed in µM

COMPOUND: CC(=O)c1cc([N+](=O)[O-])c(Sc2c(Cl)cncc2Cl)s1
log10 EC50 at 72 h: 0.94
//
COMPOUND: CC(=O)c1cc([N+](=O)[O-])c(Oc2ccc(Cl)cc2Cl)s1
log10 EC50 at 72 h: 0.93
//
COMPOUND: Cc1cc(NC(=O)c2cc([N+](=O)[O-])c(Sc3c(Cl)cncc3Cl)s2)n(CCN(C)C)n1
log10 EC50 at 72 h: 1.16
//
COMPOUND: CS(=O)(=O)c1ccc(NC(=O)c2cc([N+](=O)[O-])c(Sc3c(Cl)cncc3Cl)s2)cc1
log10 EC50 at 72 h: 0.77
//
COMPOUND: CN(C)CCC(O)c1cc([N+](=O)[O-])c(Sc2ccc(Cl)cc2Cl)s1 (centres unmarked)
log10 EC50 at 72 h: 1.18

Name the recorded log10 EC50 at 72 h for CN1CCC(NC(=O)c2cc(C#N)c(Sc3c(Cl)cncc3Cl)s2)CC1 .
1.02

Name the recorded log10 EC50 at 72 h for CC(=O)c1cc([N+](=O)[O-])c(Sc2ccc(Cl)cc2Cl)s1 .
1.21

Name the recorded log10 EC50 at 72 h for CN(C)CCOc1ccc(NC(=O)c2cc([N+](=O)[O-])c(Sc3c(Cl)cncc3Cl)s2)cc1 .
0.69

Name the recorded log10 EC50 at 72 h for CC(=O)c1cc(C#N)c(Sc2ccc(Cl)cc2Cl)s1 .
1.51
